As shown below, each of these sequences has a reported self-aminoacylation value.
System: biotinyl-Met-oxazolone
Protocol summary: self-aminoacylation, catalytic enhancement (BMO) (fold over background); higher = more active; k-Seq, kA / k0A0; sequences stand for … in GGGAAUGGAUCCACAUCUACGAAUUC…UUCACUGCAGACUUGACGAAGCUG
This sample holds only a part of the variants without activity.
Field format: numeric only.

Examples with their reported self-aminoacylation follow.
Ordered residues	Assay system	Endpoint label	Reported
AUUACACUGGUCAGCGAGUGA [Fam2.1 aminoacylation ribozyme variant]	biotinyl-Met-oxazolone	self-aminoacylation	4.36
AUUACCCUGGUCAUCGCGUGG [Fam2.1 aminoacylation ribozyme variant]	biotinyl-Met-oxazolone	self-aminoacylation	3.88

Req: Look up self-aminoacylation for this sequence: AUUCUCCUACGUCAUCGGGUG [Fam2.2 aminoacylation ribozyme variant]
Resp: 6.97

Req: Also, AUAAACCUAGGUCAUCGGGUG [Fam2.2 aminoacylation ribozyme variant] please.
Resp: 3.29

Req: Also, AUUACCCCGGUCAACGAGUGA [Fam2.1 aminoacylation ribozyme variant] please.
Resp: 5.86

Req: Also, CCACACUUCAAGUUAUCGGUC [Fam1B.1 aminoacylation ribozyme variant] please.
Resp: 1.01

Req: Also, AUUCACCUAGGUCAGCGGUUG [Fam2.2 aminoacylation ribozyme variant] please.
Resp: 2.22

Req: Also, CUCCUUCAAAUAAUCGGUCUG [Fam1A.1 aminoacylation ribozyme variant] please.
Resp: 1.08

Req: Also, CUACUUCAAACAGUCGGUAUG [Fam1A.1 aminoacylation ribozyme variant] please.
Resp: 0.587

###

Test system: biotinyl-Trp-oxazolone
Protocol summary: self-aminoacylation, catalytic enhancement (BWO) (fold over background); higher = more active; k-Seq, kA / k0A0; sequences stand for … in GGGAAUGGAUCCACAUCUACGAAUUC…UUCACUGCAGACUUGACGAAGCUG
This sample holds only a part of the variants without activity.
As shown below, each of these sequences has a reported self-aminoacylation value.
Field format: numeric only.

Ordered residues	Assay system	Endpoint label	Reported
AUACACCUAUGUCAUCGGGUG [Fam2.2 aminoacylation ribozyme variant]	biotinyl-Trp-oxazolone	self-aminoacylation	3.58
AUUUACCUGGUCAUCGAGUGA [Fam2.1 aminoacylation ribozyme variant]	biotinyl-Trp-oxazolone	self-aminoacylation	8.91
AAGAUUGCUAAUAGUCGGAAG [Fam3.1 aminoacylation ribozyme variant]	biotinyl-Trp-oxazolone	self-aminoacylation	1.54
CCAUACUGCAAGCAAUCGGUC [Fam1B.1 aminoacylation ribozyme variant]	biotinyl-Trp-oxazolone	self-aminoacylation	0.938
GUUACCCGGGUCAUCGAGUGA [Fam2.1 aminoacylation ribozyme variant]	biotinyl-Trp-oxazolone	self-aminoacylation	8.97

Req: Look up self-aminoacylation for this sequence: AUUCACCUUGGUCAUCGGUUG [Fam2.2 aminoacylation ribozyme variant]
Resp: 0.806

Req: Also, CUACUUCAAACAAUCGGUCUA [Fam1A.1 aminoacylation ribozyme variant] please.
Resp: 10

Req: Also, AUUCACAUAGGUCAUCGAGUG [Fam2.2 aminoacylation ribozyme variant] please.
Resp: 2.2

Req: Also, ACUCACCUAGGUCAUCGAGUG [Fam2.2 aminoacylation ribozyme variant] please.
Resp: 2.72

Req: Also, AAGGUUGCUAAUUGUCGCAAG [Fam3.1 aminoacylation ribozyme variant] please.
Resp: 2.85

Req: Also, CUACUUCAAUCAAUCGGUGUG [Fam1A.1 aminoacylation ribozyme variant] please.
Resp: 4.96

Req: Also, AUUACAGUGGUCAUCGAGUGA [Fam2.1 aminoacylation ribozyme variant] please.
Resp: 1.78

Req: Also, UUACUUCAAACAAUCGGUGUG [Fam1A.1 aminoacylation ribozyme variant] please.
Resp: 5.33

Req: Also, AUUCAGCUAGGUCAUCUGGUG [Fam2.2 aminoacylation ribozyme variant] please.
Resp: 2.25

Req: Also, AUACUUCAAACAAUCGGUAUG [Fam1A.1 aminoacylation ribozyme variant] please.
Resp: 2.3

Req: Also, AAGUUUGCGAAUAGUCGCAUG [Fam3.1 aminoacylation ribozyme variant] please.
Resp: 1

Req: Also, CUACUUCAUACAAUCGGUCCG [Fam1A.1 aminoacylation ribozyme variant] please.
Resp: 0.49
